- assayed.target: CAMK2B (human)
- assay.method.text: KINOMEscan competition binding
- condition.label: compound 10.0 µM
recorded.metric: kinase still bound, per cent of control (%)
Number only, in %; omit the unit.

>  <compound>
COc1cc(C(=O)NC2CCN(C)CC2)ccc1Nc1ncc2c(n1)N(C1CCCC1)C(C)CC(=O)N2C (stereo not given)

>  <assayed.target>
CAMK2B (human)

>  <recorded.metric>
kinase still bound, per cent of control

>  <result.units>
%

>  <numeric.readout>
100

$$$$

Fill in: kinase still bound, per cent of control of `CCC(=O)N1CCN(c2ccc(-n3c(=O)ccc4cnc5ccc(-c6cnc7ccccc7c6)cc5c43)cc2C(F)(F)F)CC1` is ___
100

Fill in: kinase still bound, per cent of control of `Nc1ccc(-c2ccc3ncc4ccc(=O)n(-c5cccc(C(F)(F)F)c5)c4c3c2)cn1` is ___
100

Fill in: kinase still bound, per cent of control of `C[C@@H](Oc1cc(-n2cnc3ccc(CN4CCN(C)CC4)cc32)sc1C(N)=O)c1ccccc1C(F)(F)F` is ___
19

Fill in: kinase still bound, per cent of control of `N#Cc1c(NC(=O)c2cccc3ccccc23)sc2c1CCCC2` is ___
90

* * *

Measured kinase still bound, per cent of control accompanies every entry in the list below.
- Tested on: PIK3CA (human), P42336 [I800L]
- Sequence (P42336 whole entry I800L, looked up): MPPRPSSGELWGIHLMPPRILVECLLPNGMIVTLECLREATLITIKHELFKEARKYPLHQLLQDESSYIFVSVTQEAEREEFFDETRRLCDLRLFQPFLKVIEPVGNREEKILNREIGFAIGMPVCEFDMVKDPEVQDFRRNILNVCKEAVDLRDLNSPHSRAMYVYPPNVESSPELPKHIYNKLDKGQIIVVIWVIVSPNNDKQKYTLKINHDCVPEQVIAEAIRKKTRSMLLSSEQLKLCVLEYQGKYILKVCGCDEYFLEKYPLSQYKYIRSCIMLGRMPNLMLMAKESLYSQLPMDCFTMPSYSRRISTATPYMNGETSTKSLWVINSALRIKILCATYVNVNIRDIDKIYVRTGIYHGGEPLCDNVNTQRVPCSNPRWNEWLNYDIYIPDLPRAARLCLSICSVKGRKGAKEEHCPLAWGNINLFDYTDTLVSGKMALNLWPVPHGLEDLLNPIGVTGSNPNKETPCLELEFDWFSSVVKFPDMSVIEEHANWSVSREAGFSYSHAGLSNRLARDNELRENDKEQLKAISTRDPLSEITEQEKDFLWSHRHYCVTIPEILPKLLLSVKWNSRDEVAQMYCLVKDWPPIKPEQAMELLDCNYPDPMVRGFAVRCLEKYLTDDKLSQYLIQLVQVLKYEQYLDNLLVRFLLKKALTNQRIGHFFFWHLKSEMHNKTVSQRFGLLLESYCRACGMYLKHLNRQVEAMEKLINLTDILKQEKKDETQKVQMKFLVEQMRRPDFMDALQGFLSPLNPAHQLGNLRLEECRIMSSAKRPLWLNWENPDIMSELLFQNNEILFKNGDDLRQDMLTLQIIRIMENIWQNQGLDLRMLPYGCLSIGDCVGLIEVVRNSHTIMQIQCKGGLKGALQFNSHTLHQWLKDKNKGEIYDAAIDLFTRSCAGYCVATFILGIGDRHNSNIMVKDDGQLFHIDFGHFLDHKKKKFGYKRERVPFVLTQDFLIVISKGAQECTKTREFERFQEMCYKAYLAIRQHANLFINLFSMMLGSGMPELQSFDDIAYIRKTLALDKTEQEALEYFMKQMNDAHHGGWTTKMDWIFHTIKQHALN
- assay.method.text: KINOMEscan competition binding
- condition.label: compound 10.0 µM
Number only, in %; omit the unit.

Fill in: kinase still bound, per cent of control of `COCC(=O)NC/C=C/c1ccc2ncnc(Nc3ccc(Oc4ccc(C)nc4)c(C)c3)c2c1` is ___
100

Fill in: kinase still bound, per cent of control of `Nc1ccc(-c2ccc3ncc4ccc(=O)n(-c5cccc(C(F)(F)F)c5)c4c3c2)cn1` is ___
0

Fill in: kinase still bound, per cent of control of `CCC(=O)N1CCN(c2ccc(-n3c(=O)ccc4cnc5ccc(-c6cnc7ccccc7c6)cc5c43)cc2C(F)(F)F)CC1` is ___
0

Fill in: kinase still bound, per cent of control of `N#Cc1c(NC(=O)c2cccc3ccccc23)sc2c1CCCC2` is ___
98

Fill in: kinase still bound, per cent of control of `C[C@@H](Oc1cc(-n2cnc3ccc(CN4CCN(C)CC4)cc32)sc1C(N)=O)c1ccccc1C(F)(F)F` is ___
24

* * *

- assayed.target: UniProt:Q15349
- Sequence (Q15349 whole entry, looked up): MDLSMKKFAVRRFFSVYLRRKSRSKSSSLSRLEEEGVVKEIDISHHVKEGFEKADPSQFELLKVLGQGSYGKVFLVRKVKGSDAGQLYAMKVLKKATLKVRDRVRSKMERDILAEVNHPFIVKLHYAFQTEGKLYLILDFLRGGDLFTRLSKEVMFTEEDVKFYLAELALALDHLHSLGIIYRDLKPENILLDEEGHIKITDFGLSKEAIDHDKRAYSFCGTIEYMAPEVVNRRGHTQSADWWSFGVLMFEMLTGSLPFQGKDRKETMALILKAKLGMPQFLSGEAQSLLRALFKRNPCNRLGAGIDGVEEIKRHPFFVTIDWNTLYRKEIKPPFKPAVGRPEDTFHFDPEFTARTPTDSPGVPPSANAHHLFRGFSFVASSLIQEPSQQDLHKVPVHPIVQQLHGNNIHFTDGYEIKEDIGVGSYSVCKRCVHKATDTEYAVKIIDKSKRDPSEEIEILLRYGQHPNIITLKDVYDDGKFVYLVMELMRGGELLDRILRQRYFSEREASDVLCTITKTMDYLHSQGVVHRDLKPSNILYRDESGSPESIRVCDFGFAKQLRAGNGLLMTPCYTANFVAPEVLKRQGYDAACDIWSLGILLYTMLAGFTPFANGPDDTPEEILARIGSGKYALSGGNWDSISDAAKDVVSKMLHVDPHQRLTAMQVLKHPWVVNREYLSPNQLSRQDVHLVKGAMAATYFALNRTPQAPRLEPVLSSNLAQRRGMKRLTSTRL
- assay.method.text: KINOMEscan competition binding
- condition.label: compound 10.0 µM
Mark Yes only when kinase still bound, per cent of control stays strictly below 90%. Values equal to the cut-off are No.

Use these answered entries as a reference point.
>  <query.smiles>
Nc1ccc(-c2ccc3ncc4ccc(=O)n(-c5cccc(C(F)(F)F)c5)c4c3c2)cn1

>  <class.name>
No

$$$$
>  <query.smiles>
CN(C)C/C=C/C(=O)Nc1cccc(Nc2ncc3c(n2)N(C)c2ccccc2C(=O)N3C)c1

>  <class.name>
Yes

$$$$

Lab log: compare recorded kinase still bound, per cent of control with 90%; is it strictly lower for `C=CC(=O)Nc1cc(NC(=O)c2ccc(C)c(NC(=O)c3ccno3)c2)cc(C(F)(F)F)c1` ?
No

Lab log: compare recorded kinase still bound, per cent of control with 90%; is it strictly lower for `O=C(O)c1ccc(Nc2ncc3c(n2)-c2ccc(Cl)cc2C(c2c(F)cccc2F)=NC3)cc1` ?
No

Lab log: compare recorded kinase still bound, per cent of control with 90%; is it strictly lower for `Cc1ccc2nc(NCCN)c3ncc(C)n3c2c1` ?
No

Lab log: compare recorded kinase still bound, per cent of control with 90%; is it strictly lower for `C=CC(=O)Nc1cccc(Nc2nc(N[C@H]3CC[C@H](N(C)C)CC3)nc3c2ncn3C(C)C)c1` ?
Yes

Lab log: compare recorded kinase still bound, per cent of control with 90%; is it strictly lower for `O=C(NC1CC1)c1cccc(-c2ccc3c(NC(=O)C4CC4)n[nH]c3c2)c1` ?
No

* * *

- assayed.target: RPS6KA3 KD1 (human)
- assay.method.text: KINOMEscan competition binding
- condition.label: compound 10.0 µM
recorded.metric: kinase still bound, per cent of control
Report the figure along with its unit, number first.

>  <query.smiles>
CN(C)C/C=C/C(=O)Nc1cccc(Nc2ncc3c(n2)N(C)c2ccccc2C(=O)N3C)c1

>  <recorded.metric>
kinase still bound, per cent of control

>  <result>
29%

$$$$
>  <query.smiles>
O=C(NC1CC1)c1cccc(-c2ccc3c(NC(=O)C4CC4)n[nH]c3c2)c1

>  <recorded.metric>
kinase still bound, per cent of control

>  <result>
86%

$$$$
>  <query.smiles>
CCN1CCN(Cc2ccc(Nc3ncc4c(n3)N(C)c3ccccc3C(=O)N4C)cc2C(F)(F)F)CC1

>  <recorded.metric>
kinase still bound, per cent of control

>  <result>
28%

$$$$

Fill in: kinase still bound, per cent of control of `Cc1ccc(C(=O)Nc2cccc(C(F)(F)F)c2)cc1Nc1cncc(C(N)=O)c1` is ___
100%

Fill in: kinase still bound, per cent of control of `N#Cc1c(NC(=O)c2cccc3ccccc23)sc2c1CCCC2` is ___
100%

Fill in: kinase still bound, per cent of control of `C[C@@H](Oc1cc(-n2cnc3ccc(CN4CCN(C)CC4)cc32)sc1C(N)=O)c1ccccc1C(F)(F)F` is ___
0.5%

Fill in: kinase still bound, per cent of control of `OCCCNc1cc(-c2ccnc(Nc3cccc(Cl)c3)n2)ccn1` is ___
100%

Fill in: kinase still bound, per cent of control of `Cc1cc([C@@H](C)Nc2ccccc2C(=O)O)c2nc(N3CCOCC3)cc(=O)n2c1` is ___
91%

Fill in: kinase still bound, per cent of control of `COc1cc(N2CCN(C)CC2)ccc1Nc1nc(N)c(C(=O)c2c(Cl)cccc2Cl)s1` is ___
66%

Fill in: kinase still bound, per cent of control of `CCOc1cc2ncc(C#N)c(Nc3ccc(OCc4ccccn4)c(Cl)c3)c2cc1NC(=O)/C=C/CN(C)C` is ___
89%

* * *

- assayed.target: RPS6KA5 KD1 (human)
- assay.method.text: KINOMEscan competition binding
- condition.label: compound 10.0 µM
Measured kinase still bound, per cent of control accompanies every entry in the list below.
Number only, in %; omit the unit.

Sample records with kinase still bound, per cent of control:
>  <compound>
Cn1c(=O)n(-c2ccc(C(C)(C)C#N)cc2)c2c3cc(-c4cnc5ccccc5c4)ccc3ncc21

>  <assayed.target>
RPS6KA5 KD1 (human)

>  <numeric.readout>
100

$$$$
>  <compound>
N#Cc1c(NC(=O)c2cccc3ccccc23)sc2c1CCCC2

>  <assayed.target>
RPS6KA5 KD1 (human)

>  <numeric.readout>
85

$$$$

Fill in: kinase still bound, per cent of control of `C=CC(=O)Nc1cccc(Oc2nc(Nc3ccc(N4CCN(C)CC4)cc3OC)ncc2Cl)c1` is ___
100

Fill in: kinase still bound, per cent of control of `O=C1Nc2ccc(I)cc2/C1=C/c1cc(Br)c(O)c(Br)c1` is ___
96

Fill in: kinase still bound, per cent of control of `CC[C@@H]1C(=O)N(C)c2cnc(Nc3ccc(C(=O)NC4CCN(C)CC4)cc3OC)nc2N1C1CCCC1` is ___
100

Fill in: kinase still bound, per cent of control of `Cc1ccc(NC(=O)c2cccc(C(C)(C)C#N)c2)cc1Nc1ccc2ncn(C)c(=O)c2c1` is ___
100

Fill in: kinase still bound, per cent of control of `Cc1ccc2nc(NCCN)c3ncc(C)n3c2c1` is ___
100

Fill in: kinase still bound, per cent of control of `O=C(NOC[C@H](O)CO)c1ccc(F)c(F)c1Nc1ccc(I)cc1F` is ___
87

Fill in: kinase still bound, per cent of control of `CCC(=O)N1CCN(c2ccc(-n3c(=O)ccc4cnc5ccc(-c6cnc7ccccc7c6)cc5c43)cc2C(F)(F)F)CC1` is ___
100

Fill in: kinase still bound, per cent of control of `COc1cc(N2CCN(C)CC2)ccc1Nc1nc(N)c(C(=O)c2c(Cl)cccc2Cl)s1` is ___
100

* * *

- assayed.target: IRAK1 (human) (UniProt P51617)
- Sequence (P51617 whole entry, looked up): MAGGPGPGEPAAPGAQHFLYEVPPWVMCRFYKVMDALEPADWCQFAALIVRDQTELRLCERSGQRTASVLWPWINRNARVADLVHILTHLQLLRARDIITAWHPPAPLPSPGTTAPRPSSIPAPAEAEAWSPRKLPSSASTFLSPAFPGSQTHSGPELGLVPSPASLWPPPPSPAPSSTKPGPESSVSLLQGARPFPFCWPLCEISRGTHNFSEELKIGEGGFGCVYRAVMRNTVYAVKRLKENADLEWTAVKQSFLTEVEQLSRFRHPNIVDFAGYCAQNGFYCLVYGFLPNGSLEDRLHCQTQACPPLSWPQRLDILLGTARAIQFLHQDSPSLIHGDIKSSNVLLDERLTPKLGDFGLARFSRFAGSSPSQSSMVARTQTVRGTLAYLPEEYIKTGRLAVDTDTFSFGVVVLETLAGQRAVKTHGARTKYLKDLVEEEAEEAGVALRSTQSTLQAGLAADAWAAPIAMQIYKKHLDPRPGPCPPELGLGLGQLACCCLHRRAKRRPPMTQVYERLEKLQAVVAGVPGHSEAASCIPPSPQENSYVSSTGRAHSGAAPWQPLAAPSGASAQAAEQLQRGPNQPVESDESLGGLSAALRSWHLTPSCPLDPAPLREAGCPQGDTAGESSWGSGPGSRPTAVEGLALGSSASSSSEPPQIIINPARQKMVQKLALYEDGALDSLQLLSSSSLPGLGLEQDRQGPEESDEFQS
- assay.method.text: KINOMEscan competition binding
- condition.label: compound 10.0 µM
recorded.metric: kinase still bound, per cent of control (%)
Number only, in %; omit the unit.

>  <query.smiles>
Cc1cc([C@@H](C)Nc2ccccc2C(=O)O)c2nc(N3CCOCC3)cc(=O)n2c1

>  <result.units>
%

>  <kinase still bound, per cent of control>
90

$$$$
>  <query.smiles>
C=CC(=O)Nc1cc(NC(=O)c2ccc(C)c(NC(=O)c3ccno3)c2)cc(C(F)(F)F)c1

>  <result.units>
%

>  <kinase still bound, per cent of control>
100

$$$$
>  <query.smiles>
COc1cc(N2CCN(C)CC2)ccc1Nc1nc(N)c(C(=O)c2c(Cl)cccc2Cl)s1

>  <result.units>
%

>  <kinase still bound, per cent of control>
92

$$$$
>  <query.smiles>
CN(C)C/C=C/C(=O)Nc1cccc(Nc2ncc3c(n2)N(C)c2ccccc2C(=O)N3C)c1

>  <result.units>
%

>  <kinase still bound, per cent of control>
19

$$$$
>  <query.smiles>
Cc1ccc2nc(NCCN)c3ncc(C)n3c2c1

>  <result.units>
%

>  <kinase still bound, per cent of control>
78

$$$$

Fill in: kinase still bound, per cent of control of `CCCS(=O)(=O)Nc1ccc(F)c(C(=O)c2c[nH]c3ncc(-c4ccc(Cl)cc4)cc23)c1F` is ___
99

Fill in: kinase still bound, per cent of control of `Cn1c(=O)n(-c2ccc(C(C)(C)C#N)cc2)c2c3cc(-c4cnc5ccccc5c4)ccc3ncc21` is ___
100

Fill in: kinase still bound, per cent of control of `Nc1ccc(-c2ccc3ncc4ccc(=O)n(-c5cccc(C(F)(F)F)c5)c4c3c2)cn1` is ___
84

Fill in: kinase still bound, per cent of control of `OCCCNc1cc(-c2ccnc(Nc3cccc(Cl)c3)n2)ccn1` is ___
100

Fill in: kinase still bound, per cent of control of `C=CC(=O)Nc1cccc(Nc2nc(N[C@H]3CC[C@H](N(C)C)CC3)nc3c2ncn3C(C)C)c1` is ___
1.8

Fill in: kinase still bound, per cent of control of `CCC(=O)N1CCN(c2ccc(-n3c(=O)ccc4cnc5ccc(-c6cnc7ccccc7c6)cc5c43)cc2C(F)(F)F)CC1` is ___
100

Fill in: kinase still bound, per cent of control of `CCOc1cc2ncc(C#N)c(Nc3ccc(OCc4ccccn4)c(Cl)c3)c2cc1NC(=O)/C=C/CN(C)C` is ___
65

Fill in: kinase still bound, per cent of control of `COc1cc(C(=O)NC2CCN(C)CC2)ccc1Nc1ncc2c(n1)N(C1CCCC1)CCC(=O)N2C(C)C` is ___
100

Fill in: kinase still bound, per cent of control of `Cc1ccc(NC(=O)c2cccc(C(C)(C)C#N)c2)cc1Nc1ccc2ncn(C)c(=O)c2c1` is ___
75

Every entry's value here was drawn from the kinase profiling compilation of Christmann-Franck et al. (2016).
